tested on: VDR:RXRa (NR concentration 270 nM, RXRa partner concentration 90 nM); experiment: PBM binding z-score (relative to random genomic background probes); higher = stronger binding; sequences stand for … in GC…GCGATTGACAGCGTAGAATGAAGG
PBM binding z-score: recorded values
quantity: PBM binding z-score

| input sequence | measurement target | quantity | observed measurement |
| --- | --- | --- | --- |
| TCGAGTAGGTTACGGGGGCATTCAAGGATGAAGA | VDR:RXRa (NR concentration 270 nM, RXRa partner concentration 90 nM) | PBM binding z-score | 3.74 |
| ATGTGTAGGTTACATCCGGGTCATTCAGGCTATG | VDR:RXRa (NR concentration 270 nM, RXRa partner concentration 90 nM) | PBM binding z-score | 4.22 |
| GCTCGGAGGACAAGGTCAGGGCTTTGTCCGTAGA | VDR:RXRa (NR concentration 270 nM, RXRa partner concentration 90 nM) | PBM binding z-score | 1.64 |
| CGAACTAGGTCACCAGGATAGTGAAGAGGTTGGA | VDR:RXRa (NR concentration 270 nM, RXRa partner concentration 90 nM) | PBM binding z-score | 1.93 |
| CGCACTAGGTCATTGACAGGACAGTGAATAGTAA | VDR:RXRa (NR concentration 270 nM, RXRa partner concentration 90 nM) | PBM binding z-score | 2.36 |
| CGAACTAGGTCATCAGGACAGTGAAGAGGTTGGA | VDR:RXRa (NR concentration 270 nM, RXRa partner concentration 90 nM) | PBM binding z-score | 1.89 |
| CCTGCTAGTTCAATGGTCAGCTAAAGCAGCTCGC | VDR:RXRa (NR concentration 270 nM, RXRa partner concentration 90 nM) | PBM binding z-score | 0.426 |
| CGTCCAACGTCAAGGTCAGTGAAAGAGACTCGAA | VDR:RXRa (NR concentration 270 nM, RXRa partner concentration 90 nM) | PBM binding z-score | 1.18 |
| CGAACTAGGTCAAAGGACAGTGAAAGGCGACGTA | VDR:RXRa (NR concentration 270 nM, RXRa partner concentration 90 nM) | PBM binding z-score | 1.32 |
| ATATGTAGGCTAGGGTCATTCAGAAAGTAGGGAA | VDR:RXRa (NR concentration 270 nM, RXRa partner concentration 90 nM) | PBM binding z-score | 3.8 |
| CCGAGTAGGGTACGAGGGGGCATTCAGTGCGAAT | VDR:RXRa (NR concentration 270 nM, RXRa partner concentration 90 nM) | PBM binding z-score | 4.33 |
| GCTGCTAGGTCAGGATGGTCAGCTAACGGGTACG | VDR:RXRa (NR concentration 270 nM, RXRa partner concentration 90 nM) | PBM binding z-score | 0.56 |

---

system: VDR:RXRa (NR concentration 270 nM, RXRa partner concentration 90 nM); test: PBM binding z-score (relative to random genomic background probes); higher = stronger binding; sequences stand for … in GC…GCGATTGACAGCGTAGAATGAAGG
// map PBM binding z-score onto a label; ranges bin A: < 2; bin B: ≥ 2 and < 4; bin C: ≥ 4

| input sequence | class assignment |
| --- | --- |
| TCGAGTAGGGTACGGGGGCATTCAGGGATGAAGA | bin B |
| ATATGTAGGTTAGGGTCATTAAGAAAGTAGGGAA | bin B |
| AGACAAAGTTCAGGACGAGGTAACGTAAAGCACG | bin B |
| CTATGTAGGTTAAGGGGGTCAGTCAGTTTGAAAG | bin C |
| CCTACTGGGCCATCAGGTGATTGATATCAACGTT | bin A |
| CGAACTAGTTCACCAGGACAGTGAAGAGGTTGGA | bin A |
| CTATGTAGCTTAAGGGGGTCATTCAGTTTGAAAG | bin C |
| CCGAGTAGGTTACGAGAGGGCATTCAGTGCGAAT | bin C |
| CCAGACAGGTGAAAGGTCACTCAGTCTGGTACGC | bin C |
| CCTTACGGGTCCCTGACAGGTTATAGCATTTGGA | bin A |

---

system: RARa:RXR (NR concentration 270 nM, RXRa partner concentration 90 nM); assay: PBM binding z-score (relative to random genomic background probes); higher = stronger binding; sequences stand for … in GC…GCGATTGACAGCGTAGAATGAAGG
// map PBM binding z-score to label using small value (below 2), mid value (2 to below 4), large value (4 or more)

| input sequence | class assignment |
| --- | --- |
| CCTAGCCGGCCAATCTGGGTCACTCAAGGCTTGA | mid value |
| TAGCCTAGGTCATTCAGGGGGCAGTATAGAAAGC | large value |
| CCTGCTAGGTCAATGGTCAGCTCAAGCAGCTCGC | small value |
| CTCGAAAGGTCGGTTGAGGTCAGTATACGGATAA | large value |
| CCGAGTAGGTTACGAGGGGCCATTCAGTGCGAAT | small value |
| CGTCAAAGTTCAAGCTAACGTAACAGAAAGCAGC | mid value |
| CCTAGTTGGTCAGGAGGCCACACACCGGATATGA | small value |
| TTGAGTAGGTTACGGGGGCATTCAGGGATGAAGA | mid value |
| ATCGAAAGGTGGACGAGGTGAGTATACACCGTTT | small value |
| TCGAGTAGGTTACGGGGGCATTCATGGATGAAGA | mid value |
| GCTGCTAGGTCAACTGATGGTCAGCTAGAGCTCG | mid value |
| CAAACTAGGTCACCGTAAGGTCAAAGTCCGCATG | large value |
| CGTCCAAGGTCAGAGAGGTCAGTGACTGCCGAGT | large value |
| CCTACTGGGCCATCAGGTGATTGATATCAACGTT | small value |
| ATATGTAGGTCAGGGTCATTCAGAAAGTAGGGAA | large value |
| AGTCAAAATTCACTAGGTAACGTAAGATTCAGCT | small value |
| GGAACGGGGGCATTCGAGTTGATAGCATGGCGAT | mid value |
| CCTACTGGGCCATTAAGAGGTCATTGATCATATG | large value |
| CGAACTAGATCAAAGGACAGTGAAAGGCGACGTA | small value |

---

system: PPARg:RXRa (NR concentration 180 nM, RXRa partner concentration 90 nM); assay: PBM binding z-score (relative to random genomic background probes); higher = stronger binding; sequences stand for … in GC…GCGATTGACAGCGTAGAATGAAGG
Each entry below carries its recorded PBM binding z-score.
quantity: PBM binding z-score

| input sequence | quantity | observed measurement |
| --- | --- | --- |
| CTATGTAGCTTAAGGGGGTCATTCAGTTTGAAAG | PBM binding z-score | 3.24 |
| TCTAGCTGGTCAAAGGTCACACACTCGAAATGCG | PBM binding z-score | 10.5 |
| CGAACTAGGTCAGAACAGGACATTGAAGGATGAT | PBM binding z-score | 5.42 |
| CGAACTAGGTCAAAGGACGGTGAAAGGCGACGTA | PBM binding z-score | 9.5 |
| ATATGTAGGTAAGGGTCATTCAGAAAGTAGGGAA | PBM binding z-score | 7.89 |
| CCTAGTGGGTCAGGAGGTCACACACCGGATATGA | PBM binding z-score | 7.91 |
| CTCTGTAGGTTAAGGGGGTCATTCAGTTTGAAAG | PBM binding z-score | 6.59 |
| CGAAGTAGGTCACCAGGACAGTGAAGAGGTTGGA | PBM binding z-score | 8.79 |
| TAGCCTAGGTCATGGGCCAGTTTACCACGCGAAC | PBM binding z-score | 3.6 |
| ATCGAAAGGTCGACGAGGTGAGAATACACCGTTT | PBM binding z-score | 3.21 |
| CCGAGTAGGTTACGAGGGGGCATTCGGTGCGAAT | PBM binding z-score | 2.41 |
| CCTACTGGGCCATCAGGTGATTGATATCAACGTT | PBM binding z-score | 1.29 |

---

tested on: LXRa:RXRa (NR concentration 270 nM, RXRa partner concentration 90 nM); assay: PBM binding z-score (relative to random genomic background probes); higher = stronger binding; sequences stand for … in GC…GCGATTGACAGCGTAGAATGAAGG

| input sequence | PBM binding z-score |
| --- | --- |
| TCTAGTTGGTCACGGAGGTCACACGCGACGGGTA | 3.74 |
| ATATGTAGGTTACATCCGGGTCTTTCAGGCTATG | 2.91 |
| CAAACTAGGTCAAAGGTCAAAGTAGAGCCAACCA | 7.15 |
| CCAGACAGGTGAAAGGTAACTCACTCTGGTACGC | 0.665 |
| CGATGTAGGTTAAGGGGGTCATTCAGTTTGAAAG | 4.7 |
| ATATGTAGGTTACATCCGGGTCATTCTGGCTATG | 3.94 |
| TAGCCTAGGTCATAGGGCCAGTATAGTACGCATC | 3.13 |
| CGTCCAAGGTCAAAGGTCAGCGAAGAGATGACGG | 7.06 |
| CAGCCTAGTTCAGGGCCAGTATAGGAGGAACGTT | -0.124 |
| GGTACGAGGGCAAAGTTGATAGCATCTGTCGACG | 1.03 |
| TCATATAGGTAATAGGTGAAAGTCGGTGTGGTAA | 1.11 |
| TCTTGTAGATCAAAGGTTAAGACAGCCGAAGCCT | 2.27 |
| CGAACTATGTCACCAGGACAGTGAAGAGGTTGGA | 0.0175 |
| CGAACTAGGTCACCAGTACAGTGAAGAGGTTGGA | 2.35 |
| ACTCGGAGGACAAAGGTCACAGCTACGCCAGTGA | 5.76 |
| CTATGTAGGTTAAGGGGGCCATTCAGTTTGAAAG | 1.83 |
| TCTAGCTGGTCACGGAGGTCACACACGACGGGTA | 3.79 |
| ATACGTAGGTTACATCCGGGTCATTCAGGCTATG | 4.39 |
| CCTACTGGGCCACGAAAGGTAATTGATTCAGTGA | -0.227 |
| TGAATGAGGTTAAAGGTCAGGGAACGTGGCGTCG | 6 |
| ATCGAAAGGTCGAAAGTGAGTATACCCACCCGAA | 3.24 |
| CCGAGTAGGTTACGAGGGGGCATACAGTGCGAAT | 6.92 |
| TAGAGTAGGTTACGGGGGCATTCAGGGATGAAGA | 3.19 |
| CAAACTAGGTCACCGGGAGGTCAAAGTCCGCATG | 6.26 |
| TCGAGTAGGTTACGGGAGCATTCAGGGATGAAGA | 0.0567 |
| CCTACTGGGCCAAGGTCTTTGATCAGTCAAAGCA | -0.304 |
